Here is a set of molecules with reported IC50 for Poly [ADP-ribose] polymerase 1 (Homo sapiens), compiled from the literature.
readout-label: IC50 (nM)

NCCCNC(=O)c1ccc2[nH]c(=O)c3c(c2c1)CCSC3
30

(1) O=C1NCC2c3c(cccc31)CCN2C(=O)c1cccc(Cl)c1 (stereo unspecified)
(2) O=C(c1ccc2[nH]c(=O)c3c(c2c1)CCSC3)N1CCN(CCCC(F)(F)F)CC1
(3) CC(C)NCc1ccc(-c2nc3cncc4c3n2CCNC4=O)cc1
(4) CN1CCCN(C(=O)c2cccc(Cc3nnc(O)c4ccccc34)c2)CC1
Prompt: Order these by IC50, descending, and give the full ranking. Your answer should be the labels, listed in the requested order.
Response: 2, 3, 1, 4
